// provenance: PubChem BioAssay (NCI)

- Tested on: NCI-H23 lung
- experiment description: NCI-60 one-dose screen, 48 h
- condition notes: 10 µM unless noted
This is part of a sample that, as a whole, favours compounds with a hit. Of some 83,000 tested, about 20% had one in any assay. The source made the active and inactive calls. The calls were made as follows: active = growth percent below 10; inactive = the rest.
Pick from active, inactive when you respond.

# example entries with known answers
Oc1[nH]c2ccccc2c1Nn1c(N=N/C=c2/ccc3c(c2)C=NN=3)n[nH]c1=S ... inactive
Cc1nc(-c2ccccc2O)ccc1C(=O)N=Nc1c(O)[nH]c2ccc(Br)cc12 ... inactive
O=S(=O)(NCCCNc1nccc(-c2[nH]c(-c3ccccc3)nc2-c2ccc(Cl)c(O)c2)n1)c1cccc2ccccc12 ... inactive
Cc1ccc2sc3c(c2c1)OC(N)=C(C#N)C3c1cccc(F)c1 (centres undefined) ... inactive
COc1ccc([C@@H]2[C@@H](O)C(=O)N2c2cc(OC)c(OC)c(OC)c2)cc1F ... inactive
NC(N)=Nc1ccc(Oc2cccc(Nc3ccc(Br)c(C(F)(F)F)c3)c2)cn1 ... active
Cn1cc(-c2nnc(N)nc2-c2c[nH]c3ccc(F)cc23)c2cc(F)ccc21 ... inactive
COc1ccc(C2CC(c3ccc(Nc4nc(NCCO)nc(N5CCOCC5)n4)cc3)=Nc3c(N)nc(N)nc3N2)cc1 (centres undefined) ... inactive
FC(F)(F)c1cc(Nc2cccc(Oc3ccc(NC4=NCCN4)nc3)c2)ccc1Cl ... inactive
O=S(=O)(Oc1ccc(-c2nnc(Nc3ccccc3)s2)cc1)C(F)(F)C(F)(F)C(F)(F)C(F)(F)C(F)(F)C(F)(F)F ... inactive

Recorded call for O=C(CNc1nc(-c2cccc([N+](=O)[O-])c2)cs1)Nc1cccc([N+](=O)[O-])c1 ? active

Check the results log: what was the call for O=C(NNc1nc2cc(F)ccc2n2cccc12)c1ccncn1 ? inactive

Could you kindly confirm the outcome this assay logged for CC1(COc2ccc3ncc(C#Cc4cncc(C(=O)Nc5cccc(C(F)(F)F)c5)c4)n3n2)COC1 ? inactive

So what was the verdict on COc1cccc(/C=C(/C)c2ccc3cccc(OC)c3[o+]2)c1O in this test? inactive

Hi team, can someone confirm the assay call for c1ccc(C(c2nc3ncncc3[nH]2)N2CSc3nc4ncncc4n3C2)cc1 (centres undefined) ? inactive

Answer briefly: the call reported for COc1cc(-c2nnc(SCc3ccc(O)c4ncccc34)n2-c2ccccc2)cc(OC)c1OC in this assay. active

What was the test verdict on CC/C(=C/c1c(O)cccc1OC)c1ccc2c(OC)cccc2[o+]1 ? inactive

Field: outcome | Entry: CCOC(=O)C(=O)/C(=C\c1ccc(Cl)cc1)C(=O)N1C(=S)NC(=O)C1CC(C)C (centres undefined) inactive

Dear all, I need the recorded test outcome for CC[C@H](CO)Nc1ccc2ncc(C#Cc3cncc(C(=O)Nc4ccc(CN5CCN(C)CC5)c(C(F)(F)F)c4)c3)n2n1 , thank you. active

* * *

Measured growth, listed per entry for reference.
- System: HCT-116 colon
- experiment description: NCI-60 one-dose screen, 48 h (100 = growth as untreated, 0 = no growth, -100 = all killed)
- condition notes: 10 µM unless noted
About 83,000 compounds went through this panel and 20% of them were active in at least one assay; those are over-represented in the sample as a whole.
Numeric answer only, unit % assumed.

O=C1[C@H]2Cc3c([nH]c4ccccc34)[C@@H](c3ccc(Cl)cc3)N2C(=O)CN1C1CCN(Cc2ccccc2)CC1 ... 33
COc1cc(OC)cc(C(=O)Nc2cccc(C#Cc3cccc4[nH]nc(N)c34)c2)c1 ... 13
COc1ccc(-n2c(/C=C3\C(=O)Nc4ccccc43)ccc2CO)cc1 ... 95.6
CC1(C)CC[C@]2(C(=O)N3CCOCC3)CC[C@]3(C)C(=CC[C@@H]4[C@@]5(C)C/C(=C/c6ccccn6)C(=O)C(C)(C)[C@@H]5CC[C@]43C)[C@@H]2C1 ... 34.9
COc1ccc(NC(=O)CSc2nnc(-c3ccc4nc(-c5ccccc5)[nH]c4c3)o2)cc1 ... 102
CC1=N[C@@H]2CN(C(=O)OC(C)(C)C)C[C@@H]2n2c1cc1ccccc1c2=O ... 103
COc1ccc(/C=N/NC(=O)c2cn(C3CC3)c3c(OC)c(N4CC5CCCNC5C4)c(F)cc3c2=O)cc1 (stereo not drawn) ... 53.6

Pending molecule:
Look up growth: COc1ccc(/C=C(/C)c2ccc3ccc(OC)cc3[o+]2)c(O)c1 50.7
